- testedSystem: hKv1.3 (Homo sapiens, UniProt P22001)
- Sequence (P22001 whole entry): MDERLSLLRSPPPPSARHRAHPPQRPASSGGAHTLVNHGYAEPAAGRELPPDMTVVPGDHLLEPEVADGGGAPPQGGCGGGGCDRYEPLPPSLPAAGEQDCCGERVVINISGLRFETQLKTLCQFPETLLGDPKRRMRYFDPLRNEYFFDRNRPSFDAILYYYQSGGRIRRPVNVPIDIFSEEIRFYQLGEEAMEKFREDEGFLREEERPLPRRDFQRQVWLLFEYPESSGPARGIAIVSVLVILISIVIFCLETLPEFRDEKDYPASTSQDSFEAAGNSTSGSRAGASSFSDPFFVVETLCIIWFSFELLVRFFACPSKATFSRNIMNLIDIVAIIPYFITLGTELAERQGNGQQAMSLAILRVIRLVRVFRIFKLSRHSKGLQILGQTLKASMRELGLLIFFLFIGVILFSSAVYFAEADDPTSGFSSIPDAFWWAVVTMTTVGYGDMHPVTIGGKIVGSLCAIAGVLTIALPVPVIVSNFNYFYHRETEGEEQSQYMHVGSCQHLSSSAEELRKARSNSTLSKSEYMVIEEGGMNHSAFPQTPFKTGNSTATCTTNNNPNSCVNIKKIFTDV
- assayExplanation: hKv1.3 % inhibition at 1 uM (Table 1)
- Assay type: cell-based
- conditionSummary: 1 uM
Lab note: anything with hKv1.3 % inh. 1 uM at or over 90% counts as Satisfied; the rest go in Not satisfied.

- compound: "CCN1Cc2ccc(N(Cc3ccc(Cl)cc3)S(=O)(=O)c3cccnc3)cc2C1=O [Example 2]"
  classLabel: "Satisfied"

Is hKv1.3 % inh. 1 uM for CCN1Cc2cc(N(Cc3ccc(Cl)cc3)S(=O)(=O)c3cccc(C#N)c3)ccc2C1=O [Example 12] at or above 90%?
Satisfied

Also CC(C)N1C(=O)c2ccc(N(Cc3ccc(Cl)cc3)S(=O)(=O)c3cn(C)cn3)cc2C1=O [Example 17] ?
Not satisfied

Again, but for CCN1Cc2ccc(N(Cc3ccc(Cl)cc3)S(=O)(=O)c3cccc(C#N)c3)cc2C1=O [Example 11]
Satisfied
